- subject_of_test: Recombinant human LTC4 synthase (Homo sapiens)
- Construct: made in house; host or cells: Pichia pastoris
- Sequence (Q16873 whole entry): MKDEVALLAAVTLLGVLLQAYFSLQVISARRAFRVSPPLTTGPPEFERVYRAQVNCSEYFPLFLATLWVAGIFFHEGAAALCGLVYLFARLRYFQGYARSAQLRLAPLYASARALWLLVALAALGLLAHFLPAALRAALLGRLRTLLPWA
- assay_summary: LTC4 synthase in vitro assay (HTRF detection of LTC4)
- Assay type: biochemical
- protocol_conditions: total concentration of title compound in the assay 10 μM; HTRF method
measured_property: % inh. (%)
Provide the reading as a plain figure in %.

[Q] I would be grateful if you could share the reported % inh. for CCCCc1ccc(C(=O)Nc2ccc(Oc3ccc(N(C)C(=O)c4ccc(CCCC)cc4)cc3)cc2C(=O)O)cc1 .
[A] 100

[Q] I would be grateful if you could share the reported % inh. for CCCCN(c1ccc(Oc2ccc(Nc3ccc(Cl)cc3)c(C(=O)O)c2)cc1)c1ccc(F)c(F)c1 .
[A] 95

[Q] I would be grateful if you could share the reported % inh. for O=C(Nc1cccc(Oc2ccc(NC(=O)c3ccc(C(F)(F)F)cc3F)c(C(=O)O)c2)c1)c1cccc(C(F)(F)F)c1 .
[A] 98

[Q] I would be grateful if you could share the reported % inh. for CCCCc1ccc(C(=O)Nc2ccc(Oc3ccc(NC(=O)c4ccc(Cl)cc4Cl)c(C(=O)O)c3)cc2C(=O)O)cc1 .
[A] 100

[Q] I would be grateful if you could share the reported % inh. for O=C(Nc1ccc([S+]([O-])c2ccc(NC(=O)c3ccc(C(F)(F)F)cc3)c(C(=O)O)c2)cc1C(=O)O)c1ccc(C(F)(F)F)cc1 .
[A] 99

[Q] I would be grateful if you could share the reported % inh. for COc1ccc(S(=O)(=O)N(C)c2ccc(Oc3ccc(NC(=O)c4ccc(Cl)cc4Cl)c(C(=O)O)c3)cc2)cc1 .
[A] 98

[Q] I would be grateful if you could share the reported % inh. for CN(C(=O)c1ccc(C(C)(C)C)cc1)c1ccc(Oc2ccc(NC(=O)c3ccc(Cl)cc3Cl)c(C(=O)O)c2)cc1 .
[A] 99

[Q] I would be grateful if you could share the reported % inh. for CCCCc1ccc(C(=O)Nc2ccc(Oc3ccc(NC(=O)c4cc(Cl)cc(Cl)c4)c(C(=O)O)c3)cc2C(=O)O)cc1 .
[A] 100

[Q] I would be grateful if you could share the reported % inh. for O=C(O)Cc1cc(Oc2ccc(NC(=O)c3ccc(C(F)(F)F)cc3F)c(C(=O)O)c2)ccc1NC(=O)c1cc(F)c(Cl)cc1F .
[A] 96

[Q] I would be grateful if you could share the reported % inh. for CCCCc1ccc(C(=O)Nc2ccc(Oc3ccc(NC(=O)c4ccc(F)cc4Cl)c(C(=O)O)c3)cc2C(=O)O)cc1 .
[A] 100

[Q] I would be grateful if you could share the reported % inh. for CCCCOc1ccc(S(=O)(=O)Nc2ccc(Oc3ccc(Nc4ccc(F)c(F)c4)cc3C(=O)O)cc2C(=O)O)cc1 .
[A] 100

// data source = patent US20110071197A1
